- target-of-assay: T1, human B7-H4 on the cell surface (human, UniProt Q7Z7D3 25-282)
- T1 sequence: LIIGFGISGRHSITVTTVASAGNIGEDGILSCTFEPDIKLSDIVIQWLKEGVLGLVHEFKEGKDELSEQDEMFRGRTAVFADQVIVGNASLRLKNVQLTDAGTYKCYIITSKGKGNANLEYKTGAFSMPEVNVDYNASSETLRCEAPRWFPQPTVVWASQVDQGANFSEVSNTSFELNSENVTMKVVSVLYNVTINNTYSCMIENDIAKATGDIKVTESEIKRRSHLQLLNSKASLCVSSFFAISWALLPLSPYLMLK
- method: cell-based or functional assay
metric: Donor 1 Max IFNγ (pg/mL)
Give just the number in pg/mL; leave the unit off.

Give Donor 1 Max IFNγ for B7-H4 antibody 20500 (antibody, human IgG1, kappa, V domains shown, human IgG1/kappa) VH: QLQLQESGPGLVKPSETLSLTCTVSGGSIKSGSHYWGWIRQPPGKGLEWIGNIYYSGSTYYNPSLRSRVTISVDTSKNQFSLKLSSVTAADTAVYYCAREGSYPNWFDPWGQGTLVTVSS VL: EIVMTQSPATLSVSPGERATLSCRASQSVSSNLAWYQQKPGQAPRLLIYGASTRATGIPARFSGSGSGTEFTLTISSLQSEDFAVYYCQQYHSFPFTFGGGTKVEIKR 821
